Sourced from paper PMC9394215

- target or system: human CD39 (Homo sapiens, UniProt P49961)
- Sequence (P49961 1-510): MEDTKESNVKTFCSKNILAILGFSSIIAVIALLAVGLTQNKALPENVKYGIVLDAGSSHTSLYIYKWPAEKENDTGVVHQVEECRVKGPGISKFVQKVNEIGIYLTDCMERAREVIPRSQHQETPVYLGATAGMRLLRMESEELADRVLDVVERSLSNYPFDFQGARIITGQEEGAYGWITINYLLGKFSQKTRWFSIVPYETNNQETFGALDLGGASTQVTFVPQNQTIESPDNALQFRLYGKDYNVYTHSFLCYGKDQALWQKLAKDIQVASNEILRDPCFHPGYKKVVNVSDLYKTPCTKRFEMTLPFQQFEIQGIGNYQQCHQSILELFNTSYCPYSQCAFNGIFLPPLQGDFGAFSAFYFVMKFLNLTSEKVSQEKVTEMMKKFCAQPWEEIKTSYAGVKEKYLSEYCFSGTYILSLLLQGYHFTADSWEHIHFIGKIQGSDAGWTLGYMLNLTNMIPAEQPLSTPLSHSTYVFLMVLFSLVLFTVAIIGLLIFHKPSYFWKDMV
- Type: biochemical
observed property: IC50 (µM)
Unit µM implied. Number only.

Query :: // Input: `Cc1cc(Nc2ncc(Cl)c(Nc3ccccc3S(=O)(=O)C(C)C)n2)c(OC(C)C)cc1C1CCNCC1` . Output its IC50 only.
Result :: 11.3

====

- target or system: NPP3 (Homo sapiens)
- Sequence (O14638 31-875 limits assumed): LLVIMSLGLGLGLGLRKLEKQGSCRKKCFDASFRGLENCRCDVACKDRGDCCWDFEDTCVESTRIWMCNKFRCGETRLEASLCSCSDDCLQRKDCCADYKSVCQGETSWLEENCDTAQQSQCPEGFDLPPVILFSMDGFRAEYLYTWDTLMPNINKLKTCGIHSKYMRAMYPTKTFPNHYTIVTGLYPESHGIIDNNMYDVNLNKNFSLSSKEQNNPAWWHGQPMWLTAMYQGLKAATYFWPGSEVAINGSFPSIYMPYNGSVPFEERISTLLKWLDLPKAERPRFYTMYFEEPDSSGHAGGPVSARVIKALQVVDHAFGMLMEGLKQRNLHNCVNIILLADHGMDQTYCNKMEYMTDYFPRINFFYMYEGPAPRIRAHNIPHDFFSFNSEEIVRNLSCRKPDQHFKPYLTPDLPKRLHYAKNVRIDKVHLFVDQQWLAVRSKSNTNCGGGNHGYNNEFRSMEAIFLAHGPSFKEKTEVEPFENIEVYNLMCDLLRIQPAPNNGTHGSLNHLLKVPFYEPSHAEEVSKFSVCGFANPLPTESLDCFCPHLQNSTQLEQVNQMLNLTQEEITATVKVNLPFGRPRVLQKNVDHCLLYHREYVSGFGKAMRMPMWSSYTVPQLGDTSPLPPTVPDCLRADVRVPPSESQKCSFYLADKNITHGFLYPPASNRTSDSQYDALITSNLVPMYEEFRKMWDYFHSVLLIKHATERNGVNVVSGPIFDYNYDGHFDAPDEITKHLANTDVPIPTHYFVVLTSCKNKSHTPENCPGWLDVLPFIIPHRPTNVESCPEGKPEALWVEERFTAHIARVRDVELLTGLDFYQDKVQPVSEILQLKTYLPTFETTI
observed property: IC50

Query :: // Input: `Cc1cc(Nc2ncc(Cl)c(Nc3ccccc3S(=O)(=O)C(C)C)n2)c(OC(C)C)cc1C1CCNCC1` . Output its IC50 only.
Result :: > 50 µM
